Test: Cell viability: resazurin assay
Assay type: cell-based, human
Details: human, BEAS2B cells; n = 3-5
Measured metric: CC50 at 1 day

Cc1cc(N2CCN(c3ccc(C(=O)Nc4ccc(F)cc4)c(C)c3)CC2)ccc1OC[C@@H]1CO[C@@](Cn2cncn2)(c2ccc(F)cc2F)C1 = > 14.4 µM
O=C(Nc1ccc(F)cc1)c1ccc(N2CCN(c3ccc(OC[C@@H]4CO[C@@](Cn5cncn5)(c5ccc(F)cc5F)C4)c(CO)c3)CC2)cc1 = > 14.3 µM
Cc1cc(N2CCN(c3ccc(C(=O)Nc4ccc(C#N)cc4F)cc3)CC2)ccc1OC[C@@H]1CO[C@@](Cn2cncn2)(c2ccc(F)cc2F)C1 = > 14.1 µM

Entry "Cc1cc(N2CCN(c3ccc(C(=O)Nc4ccc(OC(F)F)cc4)cc3)CC2)ccc1OC[C@@H]1CO[C@@](Cn2cncn2)(c2ccc(F)cc2F)C1" has what CC50 at 1 day? > 13.7 µM

Entry "Cc1cc(N2CCN(c3ccc(C(=O)Nc4ccc(F)cc4F)cc3)CC2)ccc1OC[C@@H]1CO[C@@](Cn2cncn2)(c2ccc(F)cc2F)C1" has what CC50 at 1 day? > 14.3 µM

Entry "Cc1cc(N2CCN(c3ccc(C(=O)Nc4cc(C#N)ccn4)cc3)CC2)ccc1OC[C@@H]1CO[C@@](Cn2cncn2)(c2ccc(F)cc2F)C1" has what CC50 at 1 day? > 14.5 µM

Entry "Cc1cc(N2CCN(c3ccc(C(=O)Nc4ccc(C#N)cc4)cc3)CC2)cc(C)c1OC[C@@H]1CO[C@@](Cn2cncn2)(c2ccc(F)cc2F)C1" has what CC50 at 1 day? > 14.2 µM

Entry "Cc1cc(N2CCN(c3ccc(C(=O)Nc4ccc(Cl)cn4)cc3)CC2)ccc1OC[C@@H]1CO[C@@](Cn2cncn2)(c2ccc(F)cc2F)C1" has what CC50 at 1 day? > 14.3 µM

Entry "Cc1cc(N2CCN(c3ccc(C(=O)Nc4c(F)cc(F)cc4F)cc3)CC2)ccc1OC[C@@H]1CO[C@@](Cn2cncn2)(c2ccc(F)cc2F)C1" has what CC50 at 1 day? > 13.9 µM

Entry "Cc1cc(N2CCN(c3ccc(C(=O)Nc4ccc(S(=O)(=O)N(C)C)cc4)cc3)CC2)ccc1OC[C@@H]1CO[C@@](Cn2cncn2)(c2ccc(F)cc2F)C1" has what CC50 at 1 day? > 13 µM

Entry "Cc1cc(N2CCN(c3ccc(C(=O)Nc4ccc(OC(F)F)c(F)c4)cc3)CC2)ccc1OC[C@@H]1CO[C@@](Cn2cncn2)(c2ccc(F)cc2F)C1" has what CC50 at 1 day? > 13.4 µM

Entry O=C(Nc1ccc(F)cc1)c1ccc(N2CCN(c3ccc(OCC4CO[C@@](Cn5cncn5)(c5ccc(F)cc5F)C4)c(F)c3)CC2)cc1 (stereo in doubt) has what CC50 at 1 day? > 14.6 µM

Entry "Cc1cc(N2CCN(c3ccc(C(=O)Nc4ccc(F)cc4)cc3)CC2)cc(C)c1OC[C@@H]1CO[C@@](Cn2cncn2)(c2ccc(F)cc2F)C1" has what CC50 at 1 day? > 14.4 µM

Entry "Cc1cc(N2CCN(c3ccc(C(=O)Nc4ccc(Cl)c(F)c4)cc3)CC2)ccc1OC[C@@H]1CO[C@@](Cn2cncn2)(c2ccc(F)cc2F)C1" has what CC50 at 1 day? > 13.9 µM

Entry "N#Cc1ccc(NC(=O)c2ccc(N3CCN(c4ccc(OC[C@@H]5CO[C@@](Cn6cncn6)(c6ccc(F)cc6F)C5)c(CO)c4)CC3)cc2)nc1" has what CC50 at 1 day? > 14.1 µM

Entry "COc1cc(C(=O)Nc2ccc(F)cc2)ccc1N1CCN(c2ccc(OC[C@@H]3CO[C@@](Cn4cncn4)(c4ccc(F)cc4F)C3)c(C)c2)CC1" has what CC50 at 1 day? > 14 µM

Entry "Cc1cc(N2CCN(c3ccc(C(=O)Nc4cccc(C#N)c4)cc3)CC2)ccc1OC[C@@H]1CO[C@@](Cn2cncn2)(c2ccc(F)cc2F)C1" has what CC50 at 1 day? 0.548 µM

###

System: aspergillus fumigatus (ATCC 13073 [strain: NIH 5233])
Assay: In vivo anti-fungal activity, prophylactic and therapeutic treatment of infected immunocompromised neutropenic mice
Set-up: species or system A/J mice
Conditions: prophylactic treatment (days 0, 1, 2 and 3); 0.4 mg/mL
Measured metric: % Inhibition versus Infected Controls, Lung Fungal Load (%)
# value in %; strip the unit string

Cc1cc(N2CCN(c3ccc(C(=O)Nc4ccc(S(N)(=O)=O)cc4)cc3)CC2)ccc1OC[C@@H]1CO[C@@](Cn2cncn2)(c2ccc(F)cc2F)C1 [Example 19] = 62
Cc1cc(N2CCN(c3ccc(C(=O)Nc4ccc(F)cc4)cc3)CC2)ccc1OC[C@@H]1CO[C@@](Cn2cncn2)(c2ccc(F)cc2F)C1 [Example 1] = 81

Shift focus to the following entry.
Entry N#Cc1cc(N2CCN(c3ccc(C(=O)Nc4ccc(F)cc4)cc3)CC2)ccc1OC[C@@H]1CO[C@@](Cn2cncn2)(c2ccc(F)cc2F)C1 [Example 4] has what % Inhibition versus Infected Controls, Lung Fungal Load? 85
